Tested on: HS 578T breast
Assay: NCI-60 one-dose screen, 48 h (100 = growth as untreated, 0 = no growth, -100 = all killed)
Conditions: 10 µM unless noted
The panel holds about 83,000 compounds, 20% with a hit somewhere; the sample as a whole holds those more often.
# growth annotations
Numeric answer only, unit % assumed.

// known answers, use as guide
Compound | growth (%)
N#Cc1c(-c2ccc(Cl)cc2)nc(NN=Cc2cccc(Cl)c2)nc1N1CCOCC1 | 96.6
CCN1CCN(c2nc(NNC(=O)c3ccc(OC)cc3)nc(N3CCN(C(c4ccccc4)c4ccccc4)CC3)n2)CC1 | 46.2

Annotate the compound `COc1ccc(C(=O)/C=C/Nc2cc(-c3ccccc3)nn2-c2ccccc2)cc1` with its measured growth.
107

Annotate the compound `Cc1c2ccncc2c(C)c2c1c1ccccc1n2CCCCCC(=O)O` with its measured growth.
88.5

Annotate the compound `N#Cc1nn(-c2ccccn2)c(N)c1C#N` with its measured growth.
105

Annotate the compound O=C1CC2C=CCN2C=C1NC(=O)c1ccccc1 (stereo not given) with its measured growth.
115

Annotate the compound `COc1cc(/C=C2\CN(S(=O)(=O)c3ccc(C)cc3)C/C(=C\c3cc(CN4CCCC4)c(O)c(OC)c3)C2=O)cc(CN2CCCC2)c1O` with its measured growth.
9.95

Annotate the compound `CN1CCN(Cc2ccc(NC(=O)c3cncc(C#Cc4cnc(N)c5ccc(C#N)cc45)c3)cc2C(F)(F)F)CC1` with its measured growth.
-32.1

Annotate the compound `CC/C(=C(/c1ccc(Cl)cc1)c1ccc(OCCN2CCCC2)cc1)c1ccccc1` with its measured growth.
71.3

Annotate the compound `COc1ccc(S(=O)(=O)Oc2ccc(-c3sc4cc(OS(=O)(=O)c5ccc(OC)cc5)ccc4c3C(=O)c3ccc(OCCN4CCCCC4)cc3)cc2)cc1` with its measured growth.
107

Annotate the compound `CNC(=O)c1cc(Oc2cccc3nc(NC(=O)Nc4ccc(F)cc4F)ccc23)ccn1` with its measured growth.
5.37

Annotate the compound O=C1C=CC2(O)OC(c3ccccc3)CC(=O)C2=C1O (stereo not given) with its measured growth.
102

Annotate the compound `Cc1[nH]c(C(=O)Nc2ccc(C(N)=O)cc2OC(C)C)c(Cl)c1Cl` with its measured growth.
88.7

Annotate the compound CCN1C(=O)N(CC)C2C1NC(=S)N2/N=C/C=C/c1cccs1 (stereo not given) with its measured growth.
16.5

Annotate the compound `O=C(Nc1ccc2[nH]ncc2c1)c1csc(Nc2ccccc2)n1` with its measured growth.
38.3

Annotate the compound `Cc1nc2c(c(-c3ccccc3)n1)Cc1c(ccc3ccccc13)O2` with its measured growth.
83.3

Annotate the compound COc1cc(C2CC(c3cccc(Nc4ccncc4)c3)=Nc3c(N)ncnc3N2)cc(OC)c1OC (stereo not given) with its measured growth.
95

Annotate the compound `Nc1ccc(N)c2c1C(=O)c1cccc([N+](=O)[O-])c1C2=O` with its measured growth.
37.6

Annotate the compound CCCCCN(CCCCC)CC(O)c1c(Cl)ccc2ccccc12 (stereo not given) with its measured growth.
80

Annotate the compound `COc1ccc(Cn2cc(C(=O)N=Nc3c(O)[nH]c4ccc(Br)cc34)nn2)cc1` with its measured growth.
114
